Every entry's value here was drawn from the supplement of paper PMC8671470.

tested on: Mono-Mac-6; assay: cell viability (% survival relative to DMSO control, bortezomib = 0%); higher = less cytotoxic; conditions: 10 nM; 72 h
readout_type: cell viability (%)
# value in %; strip the unit string

Here's what some known entries look like.
- O=C(c1ccc(OCCN2CCCCC2)cc1)c1c(-c2ccc(O)cc2)sc2cc(O)ccc12 [Raloxifene]: 95.2
- C1CCc2nnc(C34CC5CC(CC(C5)C3)C4)n2CC1 [MERCK-544]: 100
- O=C(O)CC[C@H](NC(=O)c1ccc([N+](=O)[O-])cc1)C(=O)O [(S)-2-(4-Nitrobenzamido)pentanedioic acid]: 103
- O=C(O)C(Cl)Cl [Dichloroacetate]: 92.4
- O=C(O)CCc1ccc(NCc2cccc(Oc3ccccc3)c2)cc1 [GW9508]: 104

Next compound, please.
cell viability value, target or system Mono-Mac-6, for Clc1ccc2c(c1Cl)CNCC2 : 103
